Listed here: items and their measured IC50.
- system tested: CDK7/CyclinH/MAT1 (Homo sapiens, UniProt P50613)
- Sequence (P50613 whole entry): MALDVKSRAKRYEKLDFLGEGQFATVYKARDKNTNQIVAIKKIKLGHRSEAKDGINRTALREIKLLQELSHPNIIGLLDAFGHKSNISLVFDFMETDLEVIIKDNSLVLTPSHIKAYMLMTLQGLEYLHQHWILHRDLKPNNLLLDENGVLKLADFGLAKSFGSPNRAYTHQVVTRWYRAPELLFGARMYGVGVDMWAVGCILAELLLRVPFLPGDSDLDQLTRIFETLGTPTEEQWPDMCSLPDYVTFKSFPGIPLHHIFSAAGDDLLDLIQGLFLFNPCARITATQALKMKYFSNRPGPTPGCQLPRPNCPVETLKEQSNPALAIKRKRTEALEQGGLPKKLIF
- Sequence (P51946 whole entry partner): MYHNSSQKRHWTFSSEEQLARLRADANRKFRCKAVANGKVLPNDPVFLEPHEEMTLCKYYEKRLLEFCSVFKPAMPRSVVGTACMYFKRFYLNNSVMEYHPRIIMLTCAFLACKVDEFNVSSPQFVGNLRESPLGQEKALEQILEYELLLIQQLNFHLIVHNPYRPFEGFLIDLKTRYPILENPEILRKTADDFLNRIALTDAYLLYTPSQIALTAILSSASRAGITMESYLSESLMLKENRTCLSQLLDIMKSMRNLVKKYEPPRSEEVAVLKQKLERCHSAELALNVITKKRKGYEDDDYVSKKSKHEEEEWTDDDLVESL
- Sequence (P51948 whole entry partner): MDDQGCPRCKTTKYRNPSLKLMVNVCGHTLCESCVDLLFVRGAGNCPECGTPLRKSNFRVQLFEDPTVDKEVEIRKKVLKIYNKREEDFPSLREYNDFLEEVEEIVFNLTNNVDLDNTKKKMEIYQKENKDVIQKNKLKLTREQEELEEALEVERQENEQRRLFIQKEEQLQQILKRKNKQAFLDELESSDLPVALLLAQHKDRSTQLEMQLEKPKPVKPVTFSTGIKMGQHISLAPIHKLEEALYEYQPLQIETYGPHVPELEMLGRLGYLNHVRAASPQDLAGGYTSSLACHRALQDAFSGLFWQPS
- measurement protocol: CDK7/CyclinH/MAT1 kinase inhibitory activity (Caliper mobility shift)
- experimental context: enzyme 12.5 nM, ATP 70 μM, 28° C. 30 min; read-out: CDK7/Cyclin H/MAT1 IC50

> print(dat)
                                   molecule     measured
1  CC1(C)Cc2cnc3c(F)cc(-c4nc(N[C@@H]5CCOC[C@H]5O)ncc4Cl)cc3c2CN1 [Example 30]       ≥ 1 µM
2  [2H]c1nc(N[C@@H]2CCOC[C@H]2O)nc(-c2cc(F)c3nc([2H])c4c(c3c2)CNC2(CC2)C4)c1Cl [Example 68]  0.1 to 1 µM
3  [2H]c1nc(N[C@@H]2CCOC[C@H]2O)nc(-c2cc(F)c3nc(C)c(C(C)(C)O)cc3c2)c1F [Example 83]  0.1 to 1 µM
4  [2H]c1nc2c(F)cc(-c3nc(N[C@@H]4CCOC[C@H]4O)ncc3Cl)cc2c2c1CC(C)(C)NC2 [Example 100]  0.1 to 1 µM

Would you kindly share the measured IC50 for O[C@@H]1COCC[C@H]1Nc1ncc(Cl)c(-c2cc(F)c3ncc4c(c3c2)CCNC4)n1 [Example 8] ?
0.01 to 0.1 µM

Each recorded value in this set is attributed to patent US20260242395A1.
